Heads up, these compounds all have AC50 values measured for Alpha-1A adrenergic receptor (Homo sapiens, UniProt P35348).
parameter-measured: AC50

1. Cc1ccc(C(=O)c2cc(O)c(O)c([N+](=O)[O-])c2)cc1 ... 14.6 µM
2. CC(C)(C(=O)c1cccnc1)c1cccnc1 ... > 10 µM
3. CN(C/C=C/c1ccccc1)Cc1cccc2ccccc12 ... 2.15 µM
4. O=C(Nc1ccccc1)OCC(CN1CCCCC1)OC(=O)Nc1ccccc1 (stereo not drawn) ... > 10 µM
5. O=C(O)CCCc1ccccc1 ... 14 µM
6. COc1ccccc1OCC(O)COC(N)=O (stereo not drawn) ... > 10 µM
7. CN1CCN(C(=O)OC2c3nccnc3C(=O)N2c2ccc(Cl)cn2)CC1 (stereo not drawn) ... > 10 µM
8. CC(=O)O[C@@]12CO[C@@H]1C[C@H](O)[C@@]1(C)C(=O)[C@H](O)C3=C(C)[C@@H](OC(=O)[C@H](O)[C@@H](NC(=O)OC(C)(C)C)c4ccccc4)C[C@@](O)([C@@H](OC(=O)c4ccccc4)[C@H]21)C3(C)C [DOCETAXEL ANHYDROUS] ... > 30 µM
9. COc1ccc2cccc(CCNC(C)=O)c2c1 ... > 10 µM
10. CC(C)NCC(O)COc1ccc(COCCOC(C)C)cc1 (stereo not drawn) ... > 10 µM
11. O=C(O)c1cccc(-c2noc(-c3ccccc3F)n2)c1 ... > 10 µM
12. O=C(O)c1cc(-c2ccc(F)cc2F)ccc1O ... > 30 µM
13. CCOC(=O)[C@H](CCc1ccccc1)N[C@@H](C)C(=O)N1CCC[C@H]1C(=O)O ... > 10 µM
14. NC1=NC(=O)C(c2ccccc2)O1 (stereo not drawn) ... > 10 µM
15. CN[C@@H]1[C@H](O)[C@H](NC)[C@H]2O[C@@]3(O)C(=O)C[C@@H](C)O[C@H]3O[C@@H]2[C@H]1O ... > 10 µM
16. CCC[C@@H]1C[C@@H](C(=O)N[C@@H]([C@H]2O[C@H](SC)[C@H](O)[C@@H](O)[C@H]2O)[C@H](C)Cl)N(C)C1 ... 3.42 µM
17. CN1C(=O)CC(c2ccccc2)C1=O (stereo not drawn) [PHENSUXIMIDE] ... > 10 µM
18. CCCCCN(C)CCC(O)(P(=O)(O)O)P(=O)(O)O ... > 10 µM

---

Heads up, these compounds all have AC50 values measured for Muscarinic acetylcholine receptor M5 (Homo sapiens, UniProt P08912).
parameter-measured: AC50

1) COc1cc2c(cc1OC)C(=O)C(CC1CCN(Cc3ccccc3)CC1)C2 (centres undefined) [DONEPEZIL] ... 15.4 µM
2) NC(=O)C[S+]([O-])C(c1ccccc1)c1ccccc1 (centres undefined) [MODAFINIL] ... > 10 µM
3) CN(C)CCCN1c2ccccc2Sc2ccccc21 [PROMAZINE] ... 0.589 µM
4) O=C(Nc1ccccc1)OCC(CN1CCCCC1)OC(=O)Nc1ccccc1 (centres undefined) [DIPERODON] ... > 10 µM
5) COc1cc(Nc2c(C#N)cnc3cc(OCCCN4CCN(C)CC4)c(OC)cc23)c(Cl)cc1Cl [BOSUTINIB] ... 12.1 µM
6) CN(C)C(=O)OC1N=C(c2ccccc2)c2cc(Cl)ccc2N(C)C1=O (centres undefined) [CAMAZEPAM] ... > 10 µM
7) NS(=O)(=O)c1cc2c(cc1Cl)NCNS2(=O)=O [HYDROCHLOROTHIAZIDE] ... > 10 µM
8) O=C(CCCCCCC(=O)Nc1ccccc1)NO [VORINOSTAT] ... > 10 µM
9) Cc1ccc(-c2nc3ccc(C)cn3c2CC(=O)N(C)C)cc1 [ZOLPIDEM] ... > 10 µM
10) NC(N)=Nc1nc(CSCCC(N)=NS(N)(=O)=O)cs1 [FAMOTIDINE] ... > 10 µM
11) CCOC(=O)[C@H](CCc1ccccc1)N[C@@H](C)C(=O)N1CCC[C@H]1C(=O)O ... > 10 µM
12) C[C@H]1O[C@H](O[C@H]2[C@H](O)[C@@H](O)[C@@H](O[C@H]3[C@H](O)[C@@H](O)C(O)O[C@@H]3CO)O[C@@H]2CO)[C@H](O)[C@@H](O)[C@@H]1N[C@H]1C=C(CO)[C@@H](O)[C@H](O)[C@H]1O (some centres undefined) [ACARBOSE] ... > 10 µM
13) O=C(O)CCCc1ccccc1 [PHENYLBUTANOIC ACID] ... > 10 µM
14) Nc1nc(N)c2nc(-c3ccccc3)c(N)nc2n1 ... > 10 µM
